# Test system: 501Mel-XP cells (Vemurafenib-resistant)
# Protocol: Kinase inhibitor library screening, PrestoBlue cell viability, 1 or 10 μM, 72 h
# Condition label: 501Mel XP; 10μΜ; 72 h; in %
Parameter measured: Cell viability in kinase inhibitor library screening, 501Mel XP, 10μΜ
Please respond with just the number, no unit label.

Compound: COc1ccc(-c2ccc3ncc4c(c3c2)n(-c2ccc(N3CCNCC3)c(C(F)(F)F)c2)c(=O)n4C)cn1
Numeric value: 1.1
--
Compound: CO[C@H]1C[C@@H]2CC[C@@H](C)[C@@](O)(O2)C(=O)C(=O)N2CCCC[C@H]2C(=O)O[C@H]([C@H](C)C[C@@H]2CC[C@@H](O)[C@H](OC)C2)CC(=O)[C@H](C)/C=C(\C)[C@@H](O)[C@@H](OC)C(=O)[C@H](C)C[C@H](C)/C=C/C=C/C=C/1C [Rapamycin (Sirolimus)]
Numeric value: 42.7
--
Compound: O=C1NC(=O)C(=Cc2ccc(-c3ccc(F)cc3)o2)S1 (stereo in doubt)
Numeric value: 90.3
--
Compound: Cc1ccc(NC(=O)c2cccc(C(C)(C)C#N)c2)cc1Nc1ccc2ncn(C)c(=O)c2c1
Numeric value: 79.0
--
Compound: Cn1cc(C2=C(c3cn(C4CCN(Cc5ccccn5)CC4)c4ccccc34)C(=O)NC2=O)c2ccccc21
Numeric value: 48.1

# context switch: different compound, same Cell viability in kinase inhibitor library screening, 501Mel XP, 10μΜ
In one line, give reported Cell viability in kinase inhibitor library screening, 501Mel XP, 10μΜ of the entry `COC[C@H]1OC(=O)c2coc3c2[C@@]1(C)C1=C(C3=O)[C@@H]2CCC(=O)[C@@]2(C)C[C@H]1OC(C)=O` . 23.3

----------
pIC50 for assorted compounds
# Tested on: A375-XP cells (Vemurafenib-resistant)
# Protocol: Dose-response curves and IC50, PrestoBlue cell viability, 72 h
# Type: cell-based, human
# Condition label: Homo sapiens, n.e. = did not suppress growth below 50% in the tested concentration range, read-out: Half-maximal inhibitory concentration value (IC50), Mean
pIC50 is a log-scale quantity: -log10 of the concentration expressed in molar.

Entry smiles: NC1(c2ccc(-c3nc4ccn5c(=O)[nH]nc5c4cc3-c3ccccc3)cc2)CCC1
Experimental target: A375-XP cells (Vemurafenib-resistant)
Parameter measured: pIC50
Numeric value: 5.47
--
Entry smiles: C[C@@H](Oc1cc(-c2cnn(C3CCNCC3)c2)cnc1N)c1c(Cl)ccc(F)c1Cl
Experimental target: A375-XP cells (Vemurafenib-resistant)
Parameter measured: pIC50
Numeric value: 5.29
--
Entry smiles: C[C@]1(O)C[C@@H](c2nc(-c3ccc4ccc(-c5ccccc5)nc4c3)c3c(N)nccn32)C1
Experimental target: A375-XP cells (Vemurafenib-resistant)
Parameter measured: pIC50
Numeric value: 5.53

# context switch: different compound, same pIC50
Identify measured pIC50 obtained with A375-XP cells (Vemurafenib-resistant) for `O=C(O)c1ccc2c(c1)nc(Nc1cccc(Cl)c1)c1ccncc12` . 5.28

----------
# System: IGR37 cells (parental)
# Protocol: Kinase inhibitor library screening, PrestoBlue cell viability, 1 or 10 μM, 72 h
# Condition label: IGR37 Parental; 1μΜ; 72 h; in %
Cell viability in kinase inhibitor library screening, IGR37 Parental, 1μΜ for assorted compounds
Please respond with just the number, no unit label.

Compound: Nc1cc(C(F)(F)F)c(-c2cc(N3CCOCC3)nc(N3CCOCC3)n2)cn1 [BKM120 (Buparlisib)]
Numeric value: 91.7

Compound: O=C1NC(=O)/C(=C\c2ccc3nccnc3c2)S1 [AS-605240]
Numeric value: 99.2

Compound: CCC(=O)N1CCN(c2ccc(-n3c(=O)ccc4cnc5ccc(-c6cnc7ccccc7c6)cc5c43)cc2C(F)(F)F)CC1 [Torin 1]
Numeric value: 23.8

# context switch: different compound, same Cell viability in kinase inhibitor library screening, IGR37 Parental, 1μΜ
In one line, give reported Cell viability in kinase inhibitor library screening, IGR37 Parental, 1μΜ of the entry CO[C@H]1C[C@@H]2CC[C@@H](C)[C@@](O)(O2)C(=O)C(=O)N2CCCC[C@H]2C(=O)O[C@H]([C@H](C)C[C@@H]2CC[C@@H](O)[C@H](OC)C2)CC(=O)[C@H](C)/C=C(\C)[C@@H](O)[C@@H](OC)C(=O)[C@H](C)C[C@H](C)/C=C/C=C/C=C/1C [Rapamycin (Sirolimus)] . 79.9

----------
# Tested on: IGR37-GP cells (Dabrafenib-resistant)
# Protocol: Kinase inhibitor library screening, PrestoBlue cell viability, 1 or 10 μM, 72 h
# Condition label: IGR37 GP; 1μΜ; 72 h; in %
Parameter measured: Cell viability in kinase inhibitor library screening, IGR37 GP, 1μΜ
Please respond with just the number, no unit label.

Some molecules with known Cell viability in kinase inhibitor library screening, IGR37 GP, 1μΜ results, for comparison:
Molecule: CO[C@H]1C[C@@H]2CC[C@@H](C)[C@@](O)(O2)C(=O)C(=O)N2CCCC[C@H]2C(=O)O[C@H]([C@H](C)C[C@@H]2CC[C@@H](OC(=O)C(C)(CO)CO)[C@H](OC)C2)CC(=O)[C@H](C)/C=C(\C)[C@@H](O)[C@@H](OC)C(=O)[C@H](C)C[C@H](C)/C=C/C=C/C=C/1C
Numeric value: 91.9
--
Molecule: COCCOc1ccc2c(c1)ncn2-c1ccc2cccc(N3CCC(N)CC3)c2n1
Numeric value: 99.0
--
Molecule: Cc1nc(NC(=O)N2CCC[C@H]2C(N)=O)sc1-c1ccnc(C(C)(C)C(F)(F)F)c1
Numeric value: 90.5

In one line, give reported Cell viability in kinase inhibitor library screening, IGR37 GP, 1μΜ of the entry `O=c1cc(N2CCOCC2)oc2c(-c3ccccc3)cccc12` . 100.0

In one line, give reported Cell viability in kinase inhibitor library screening, IGR37 GP, 1μΜ of the entry `c1cncc(CN2CCC(n3ncc4c(N5CCOCC5)nc(-c5ccc6[nH]ccc6c5)nc43)CC2)c1` . 95.3

In one line, give reported Cell viability in kinase inhibitor library screening, IGR37 GP, 1μΜ of the entry `Nc1ccc(-c2ccc3ncc4ccc(=O)n(-c5cccc(C(F)(F)F)c5)c4c3c2)cn1` . 20.7

In one line, give reported Cell viability in kinase inhibitor library screening, IGR37 GP, 1μΜ of the entry `CC(C)n1nc(-c2ccc3oc(N)nc3c2)c2c(N)ncnc21` . 44.7

In one line, give reported Cell viability in kinase inhibitor library screening, IGR37 GP, 1μΜ of the entry `CCCS(=O)(=O)Nc1ccc(F)c(C(=O)c2c[nH]c3ncc(-c4ccc(Cl)cc4)cc23)c1F` . 94.0

In one line, give reported Cell viability in kinase inhibitor library screening, IGR37 GP, 1μΜ of the entry `CN(C)C1CCN(C(=O)c2ccc(NC(=O)Nc3ccc(-c4nc(N5CCOCC5)nc(N5CCOCC5)n4)cc3)cc2)CC1` . 39.4

----------
cell viability, IGR37 Parental, 1μΜ for assorted compounds
# System: IGR37 cells (parental)
# Protocol: Kinase inhibitor library screening, PrestoBlue cell viability, 1 or 10 μM, 72 h
# Condition label: IGR37 Parental; 1μΜ; 72 h; in %
Please respond with just the number, no unit label.

Some compounds with known cell viability, IGR37 Parental, 1μΜ results, for comparison:
Compound: Cc1c(NC(=O)OC[C@@H]2COCCN2)cn2ncnc(Nc3ccc4c(cnn4Cc4cccc(F)c4)c3)c12
cell viability, IGR37 Parental, 1μΜ: 109.0

Compound: C=CC(=O)Nc1cccc(Oc2nc(Nc3ccc(N4CCN(C)CC4)cc3)ncc2Cl)c1
cell viability, IGR37 Parental, 1μΜ: 96.7

Compound: C#Cc1cccc(Nc2ncnc3cc(OCCOC)c(OCCO)cc23)c1 [Desmethyl Erlotinib (CP-473420)]
cell viability, IGR37 Parental, 1μΜ: 99.9

Compound: C=CC(=O)Nc1cc2c(Nc3ccc(F)c(Cl)c3)ncnc2cc1OCCCN1CCOCC1
cell viability, IGR37 Parental, 1μΜ: 98.8

Compound: CNC(=O)c1ccccc1Nc1nc(Nc2ccc(N3CCOCC3)cc2OC)ncc1Cl
cell viability, IGR37 Parental, 1μΜ: 82.8

Compound: CCc1cc(Nc2nccc(-c3c(-c4ccc(OC)c(C(=O)Nc5c(F)cccc5F)c4)nc4ccccn34)n2)c(OC)cc1N1CCC(N2CCN(S(C)(=O)=O)CC2)CC1 [GSK1904529A]
cell viability, IGR37 Parental, 1μΜ: 114.5

Compound: CCOc1cc2ncc(C#N)c(Nc3ccc(F)c(Cl)c3)c2cc1NC(=O)/C=C/CN(C)C [Pelitinib (EKB-569)]
cell viability, IGR37 Parental, 1μΜ: 99.8

Compound: Cc1cnc(Nc2ccc(OCCN3CCCC3)cc2)nc1Nc1cccc(S(=O)(=O)NC(C)(C)C)c1 [TG101348 (SAR302503)]
cell viability, IGR37 Parental, 1μΜ: 98.0

Identify measured cell viability, IGR37 Parental, 1μΜ obtained with IGR37 cells (parental) for O=C(NOCC(O)CO)c1cc(Br)c(F)c(F)c1Nc1ccc(I)cc1F (centres unmarked) . 37.8

Identify measured cell viability, IGR37 Parental, 1μΜ obtained with IGR37 cells (parental) for `CC(O)C(=O)O.CC(O)C(=O)O.CN1CCN(c2ccc3nc(-c4c(N)c5c(F)cccc5[nH]c4=O)[nH]c3c2)CC1` . 105.9

Identify measured cell viability, IGR37 Parental, 1μΜ obtained with IGR37 cells (parental) for `O=C1NC(=O)C(c2ccccc2[N+](=O)[O-])=C1Nc1ccc(O)c(Cl)c1` . 102.6
